target: rat SUR2A (Rattus norvegicus); test: In vitro binding affinity to rodent KATP channels: SUR2A ([3H]P1075 / [3H]glibenclamide displacement, COS cell membranes)
Sequence (Q63563 whole entry): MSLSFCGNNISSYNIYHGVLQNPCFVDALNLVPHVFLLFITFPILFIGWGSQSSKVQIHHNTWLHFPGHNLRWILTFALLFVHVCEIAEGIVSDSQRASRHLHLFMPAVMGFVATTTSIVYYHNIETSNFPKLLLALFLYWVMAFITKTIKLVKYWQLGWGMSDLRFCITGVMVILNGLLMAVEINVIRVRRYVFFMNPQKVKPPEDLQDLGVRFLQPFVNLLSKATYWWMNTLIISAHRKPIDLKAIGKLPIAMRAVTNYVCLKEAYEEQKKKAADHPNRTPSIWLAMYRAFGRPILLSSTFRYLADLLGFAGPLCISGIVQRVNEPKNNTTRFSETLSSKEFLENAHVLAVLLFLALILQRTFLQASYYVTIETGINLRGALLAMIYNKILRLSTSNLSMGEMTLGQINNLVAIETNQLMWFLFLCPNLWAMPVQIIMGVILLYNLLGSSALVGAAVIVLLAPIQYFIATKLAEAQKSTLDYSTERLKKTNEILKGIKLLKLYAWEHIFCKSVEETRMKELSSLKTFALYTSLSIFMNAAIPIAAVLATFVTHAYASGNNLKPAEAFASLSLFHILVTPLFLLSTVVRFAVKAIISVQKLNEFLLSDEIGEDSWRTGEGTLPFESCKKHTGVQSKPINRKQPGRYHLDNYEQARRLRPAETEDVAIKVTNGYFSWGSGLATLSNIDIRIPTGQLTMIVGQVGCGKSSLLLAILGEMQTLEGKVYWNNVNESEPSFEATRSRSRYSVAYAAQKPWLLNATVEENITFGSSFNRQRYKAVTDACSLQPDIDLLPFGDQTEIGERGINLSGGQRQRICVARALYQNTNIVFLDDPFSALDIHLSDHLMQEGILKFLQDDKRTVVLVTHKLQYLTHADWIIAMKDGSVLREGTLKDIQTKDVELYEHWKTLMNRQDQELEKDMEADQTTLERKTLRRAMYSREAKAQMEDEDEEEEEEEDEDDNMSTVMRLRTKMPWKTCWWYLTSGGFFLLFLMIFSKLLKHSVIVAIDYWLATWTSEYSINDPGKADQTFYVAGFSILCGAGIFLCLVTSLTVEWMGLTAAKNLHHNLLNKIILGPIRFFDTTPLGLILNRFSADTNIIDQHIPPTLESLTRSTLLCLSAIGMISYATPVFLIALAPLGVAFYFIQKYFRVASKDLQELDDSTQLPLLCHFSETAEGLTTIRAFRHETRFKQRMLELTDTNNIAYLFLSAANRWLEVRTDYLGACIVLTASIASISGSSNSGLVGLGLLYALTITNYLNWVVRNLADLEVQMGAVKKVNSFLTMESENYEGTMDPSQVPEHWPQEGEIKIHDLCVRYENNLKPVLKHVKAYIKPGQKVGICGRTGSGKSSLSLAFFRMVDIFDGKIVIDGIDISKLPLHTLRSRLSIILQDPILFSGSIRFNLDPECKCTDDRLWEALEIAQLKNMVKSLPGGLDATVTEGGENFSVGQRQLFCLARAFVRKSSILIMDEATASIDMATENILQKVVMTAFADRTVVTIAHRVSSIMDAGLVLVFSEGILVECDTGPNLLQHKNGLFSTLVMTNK
result.type: pKi
// print number alone

Illustrative cases are given below, each with its answer.
compound="N=C(N)C1=NN(c2ccc(Cl)cc2)C(c2ccccc2)C1 (stereo not drawn)" result_type=pKi data_value=4.0
compound=O=C(NN1CCCCC1)c1cn(-c2ccc(C(F)(F)F)cc2)c(-c2ccccc2Cl)n1 result_type=pKi data_value=5.7
compound="CS(=O)(=O)C(=C1CN(C(c2ccc(Cl)cc2)c2ccc(Cl)cc2)C1)c1cc(F)cc(F)c1 [reference compound]" result_type=pKi data_value=5.1

State pKi (rat SUR2A (Rattus norvegicus)) of CCc1c(C(=O)NN2CCCCC2)nc(-c2ccc(Cl)cc2Cl)n1-c1ccc(Cl)cc1 .
5.5

For rat SUR2A (Rattus norvegicus), give pKi of the listed compound: CCN(CC)S(=O)(=O)N=C(SC)N1CC(c2ccccc2)C(c2ccc(Cl)cc2)=N1 (stereo not drawn)
4.7

Fill in pKi for Cc1c(C(=O)NN2CCCCCC2)nc(-c2ccc(Cl)cc2Cl)n1-c1ccc(Cl)cc1 tested with rat SUR2A (Rattus norvegicus).
5.7

Lab note: record pKi of O=S(=O)(N=C(NCCF)N1CC(c2ccccc2)C(c2ccc(Cl)cc2)=N1)c1ccc(Cl)cc1 (stereo not drawn) [drawing 46] tested on rat SUR2A (Rattus norvegicus).
5.0

Provide measured pKi on rat SUR2A (Rattus norvegicus) for CON/C(=N\S(=O)(=O)c1ccc(Cl)cc1)N1C[C@H](c2cccc(F)c2)C(c2ccc(Cl)cc2)=N1 please.
6.1

# return pKi of O=S(=O)(N=C(NCC1CC1)N1CC(c2ccccc2)C(c2ccc(Cl)cc2)=N1)N1CCOCC1 (stereo not drawn) (system: rat SUR2A (Rattus norvegicus))
5.7

----------
Target: rat SUR2A (Rattus norvegicus)
Experiment: In vitro binding affinity to rodent KATP channels: SUR2A ([3H]P1075 / [3H]glibenclamide displacement, COS cell membranes)
Details: rat SUR2A in COS cell membranes
Experimental: Therefore, two strategies can be used to detect binding to the sulfonylurea site on SUR2A. Membranes from COS-cells transiently expressing rat SUR2A were incubated in the presence of the radioligands with increasing concentrations of test compounds as described above. […] For each test compound four displacement curves were measured (displacement of [^3H]P1075 from the rat isoform of the wild type receptor and displacement of [^3H]glibenclamide from the rat isoform of SUR2AY1205S). […]
result.type: pKi

Here's what some known entries look like.
smiles_representation=O=C(NN1CCCCC1)c1nc(-c2ccc(Cl)cc2Cl)n(-c2ccc(Cl)cc2)c1CN1CCCC1 result_type=pKi data_value=4.6
smiles_representation=Cn1c(C(=O)NC2CCCCC2)nc(-c2ccc(Cl)cc2Cl)c1-c1ccc(Cl)cc1 result_type=pKi data_value=4.9

Check the records and state pKi for Cn1c(C(=O)NC2CCCCC2)nc(-c2ccc(Cl)cc2)c1-c1ccc(Cl)cc1Cl
4.7

Please give measured pKi of the following entry: CCCCCNC(=O)c1nc(-c2ccc(Cl)cc2Cl)n(-c2ccc(Br)cc2)c1CC
5.6

----------
Target: UniProtKB P34972
Sequence (P34972 whole entry): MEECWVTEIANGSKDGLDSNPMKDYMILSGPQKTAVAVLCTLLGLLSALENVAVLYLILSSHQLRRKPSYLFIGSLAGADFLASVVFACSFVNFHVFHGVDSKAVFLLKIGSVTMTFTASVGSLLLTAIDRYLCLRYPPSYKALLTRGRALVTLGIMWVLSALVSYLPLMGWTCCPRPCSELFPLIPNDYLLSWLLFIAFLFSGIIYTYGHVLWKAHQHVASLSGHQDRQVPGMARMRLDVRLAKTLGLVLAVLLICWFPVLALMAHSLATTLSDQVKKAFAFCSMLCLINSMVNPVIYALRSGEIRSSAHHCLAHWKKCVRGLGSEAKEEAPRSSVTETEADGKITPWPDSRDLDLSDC
Experiment: biochemical
Format: binding
Conditions: cloned human CB2 receptor expressed in CHO cells; read-out: Affinity to CB2 (converted)
Experimental: 3. In Vitro Binding Affinity of the Test Compounds to CB2 Receptors After incubation of a freshly prepared cell membrane preparation with the [^3H]-ligand, with or without the addition of the compounds described herein, separation of bound and free ligand is performed by filtration over glass-fiber filters. Radioactivity on the filter is measured by liquid scintillation counting.
Binarize Ki at 1000 nM; below is Yes, at or above is No.

Would you please look over these solved cases?
molecule="CN1CCCCC1Cn1cc(C(=O)c2cc([N+](=O)[O-])ccc2I)c2ccccc21 (stereo not drawn) [AM-1241, reference compound]" cat=Yes
molecule="CCCCC/C=C\\C/C=C\\C/C=C\\C/C=C\\CCCC(=O)OC(CO)CO [2-AG, reference compound]" cat=No
molecule=Cc1c(C=C(c2cc(F)cc(F)c2)S(C)(=O)=O)nn(-c2ccc(Cl)cc2Cl)c1-c1ccc(Br)cc1 cat=No
molecule=CCc1c(C(=O)NC2CCCCC2)nc(-c2ccc(Cl)cc2Cl)n1-c1ccc(Br)cc1 cat=Yes

Identify whether the molecule CSc1c(C(=O)NN2CCCCC2)nc(-c2ccccc2Cl)n1-c1ccc(Cl)cc1 records Ki below 1000 nM.
No

Could you please tell me whether Ki recorded for N=C(N)C1=NN(c2ccc(Cl)cc2)C(c2ccccc2)C1 (stereo not drawn) is less than 1000 nM?
Yes

Lab note: confirm whether the reported Ki for this molecule is below 1000 nM, equality not counting. molecule: CCc1c(C(=O)NN2CCCCC2)nn(-c2ccc(Cl)cc2Cl)c1-c1ccc(Br)cc1 [SR-147778, reference compound]
No

A record lists O=C(NN1CCCCC1)c1nc(-c2ccc(Cl)cc2Cl)n(-c2ccc(Cl)cc2)c1CF . Is its Ki below 1000 nM?
Yes
